Test: NCI Yeast Anticancer Drug Screen. Data for the cln2 rad14 strain (AID 165);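 also: 0% = growth equal to vehicle treated cultures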
Details: S. cerevisiae cln2 rad14 strain, at 50.0 µM, active compounds read high
This is part of a sample that, as a whole, favours compounds with a hit. Of some 79,000 tested, about 15% had one in any assay.
endpoint_label: growth inhibition (%)
I only need the number, in %, no unit after it.

// solved cases for growth inhibition follow
>>> result_value("Cc1cccc(C)c1N1C(=O)C2c3[nH]c4ccccc4c3C3CCC(C(C)(C)C)CC3C2C1=O (stereo unspecified)")
1.8
>>> result_value("CCN(CC)CCCNc1ncc(C)c2[nH]c3ccncc3c12")
-9.1

// O=C(N/N=C\c1ccc2c(c1)OCO2)c1ccc2c(c1)OCO2 : growth inhibition value = -15.2

// C1=Nc2ccccc2/C1=C/c1ccc2c(c1)OCO2 : growth inhibition value = -55.6

// O=c1ncccn1C1OC(CO)C(O)C1F (stereo unspecified) : growth inhibition value = -7.15

// CN(C(=O)c1ccco1)C(=S)N1CCN(c2ccccc2)CC1 : growth inhibition value = 10.2

---

Experiment: NCI Yeast Anticancer Drug Screen. Data for the mec2-1 strain (AID 157)
Conditions: S. cerevisiae mec2-1 strain, at 50.0 µM, active compounds read high
The panel holds about 79,000 compounds, 15% with a hit somewhere; the sample as a whole holds those more often.
Each record here notes measured growth inhibition.
I only need the number, in %, no unit after it.

>>> result_value("Nc1ccc(C(=O)O)c([N+](=O)[O-])c1")
-2.45
>>> result_value("CCOC(=O)C(NC(C)=O)C(O)c1ccc(C(C)C)cc1 (stereo not given)")
4.4
>>> result_value("CC12CCC(=O)C=C1CCC1C2CCC2(C)C(C(=O)Cn3c(=O)cc[nH]c3=O)CCC12 (stereo not given)")
-3.7
>>> result_value("N#CCCOC(=O)Nc1cccc(Cl)c1")
15.4

Next up:
// O=C1C(c2ccccc2)=C(c2ccccc2)C(c2ccc(Cc3ccc(C4=C(c5ccccc5)C(=O)C(c5ccccc5)=C4c4ccccc4)cc3)cc2)=C1c1ccccc1 : growth inhibition value = 32.4

---

Assay: NCI Yeast Anticancer Drug Screen. Data for the cln2 rad14 strain (AID 165);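 also: 0% = growth equal to vehicle treated cultures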
Conditions: S. cerevisiae cln2 rad14 strain, at 50.0 µM, active compounds read high
This is part of a sample that, as a whole, favours compounds with a hit. Of some 79,000 tested, about 15% had one in any assay.
endpoint_label: growth inhibition (%)
I only need the number, in %, no unit after it.

// solved cases for growth inhibition follow
>>> result_value("CC1CCC2(CC1)CC(=O)N(N1CCCCC1)C2=O (configuration not stated)")
17.1
>>> result_value("O=C(Nc1cccc(F)c1)Sc1ccc(Cl)cc1")
34
>>> result_value("C/C=C(\\C)C(=O)N1c2ccccc2CC1c1c(C)[nH]c2ccccc12 (configuration not stated)")
19.9
>>> result_value("CCOC(=O)C1SC(=S)N(c2ccccc2)C1N (configuration not stated)")
-11.6
>>> result_value("Clc1ccc2oc(N3CCOCC3)nc2c1")
-13.4

// C[Si](C)(C)N1N=NC2C(=O)N(c3ccccc3)C(=O)C21 (configuration not stated) : growth inhibition value = 0.1

// Cn1c(=O)oc2cc(Br)ccc21 : growth inhibition value = 18.9

---

Experiment: NCI Yeast Anticancer Drug Screen. Data for the bub3 strain (AID 167)
Conditions: S. cerevisiae bub3 mutant strain, at 50.0 µM
The panel holds about 79,000 compounds, 15% with a hit somewhere; the sample as a whole holds those more often. Active and inactive are the calls of the source. Rule as the data show it: active = growth inhibition above about 70%; inactive = the rest.
Select the correct class. Options are active, inactive and nothing else.

Field: example entries. Status: answers known.
>>> group("O=C1c2ccccc2-c2nnc(-c3ccc(Cl)cc3)cc21")
"inactive"
>>> group("Cc1[nH]nc(C(=O)O)c1[N+](=O)[O-]")
"inactive"
>>> group("C=C(COC(C)=O)CC(/C=C(\\C)CCC=C(C)C)OC(C)=O (stereo not drawn)")
"inactive"

Task item: Per the assay record, what outcome was assigned to COc1c2occc2c(OC)c2c(=O)c(S(=O)(=O)NC(=O)Nc3ccc(Cl)cc3)coc12 ?
Reply: inactive

Task item: Per the assay record, what outcome was assigned to Cc1cc(C)cc(OCCC(=O)O)c1 ?
Reply: inactive
